Reference source: patent US8912209B2

Measured IC50 values are reported for all entries that follow.
Target entity: ROCKα/ROCKII (Homo sapiens, UniProt O75116)
Sequence (O75116 whole entry): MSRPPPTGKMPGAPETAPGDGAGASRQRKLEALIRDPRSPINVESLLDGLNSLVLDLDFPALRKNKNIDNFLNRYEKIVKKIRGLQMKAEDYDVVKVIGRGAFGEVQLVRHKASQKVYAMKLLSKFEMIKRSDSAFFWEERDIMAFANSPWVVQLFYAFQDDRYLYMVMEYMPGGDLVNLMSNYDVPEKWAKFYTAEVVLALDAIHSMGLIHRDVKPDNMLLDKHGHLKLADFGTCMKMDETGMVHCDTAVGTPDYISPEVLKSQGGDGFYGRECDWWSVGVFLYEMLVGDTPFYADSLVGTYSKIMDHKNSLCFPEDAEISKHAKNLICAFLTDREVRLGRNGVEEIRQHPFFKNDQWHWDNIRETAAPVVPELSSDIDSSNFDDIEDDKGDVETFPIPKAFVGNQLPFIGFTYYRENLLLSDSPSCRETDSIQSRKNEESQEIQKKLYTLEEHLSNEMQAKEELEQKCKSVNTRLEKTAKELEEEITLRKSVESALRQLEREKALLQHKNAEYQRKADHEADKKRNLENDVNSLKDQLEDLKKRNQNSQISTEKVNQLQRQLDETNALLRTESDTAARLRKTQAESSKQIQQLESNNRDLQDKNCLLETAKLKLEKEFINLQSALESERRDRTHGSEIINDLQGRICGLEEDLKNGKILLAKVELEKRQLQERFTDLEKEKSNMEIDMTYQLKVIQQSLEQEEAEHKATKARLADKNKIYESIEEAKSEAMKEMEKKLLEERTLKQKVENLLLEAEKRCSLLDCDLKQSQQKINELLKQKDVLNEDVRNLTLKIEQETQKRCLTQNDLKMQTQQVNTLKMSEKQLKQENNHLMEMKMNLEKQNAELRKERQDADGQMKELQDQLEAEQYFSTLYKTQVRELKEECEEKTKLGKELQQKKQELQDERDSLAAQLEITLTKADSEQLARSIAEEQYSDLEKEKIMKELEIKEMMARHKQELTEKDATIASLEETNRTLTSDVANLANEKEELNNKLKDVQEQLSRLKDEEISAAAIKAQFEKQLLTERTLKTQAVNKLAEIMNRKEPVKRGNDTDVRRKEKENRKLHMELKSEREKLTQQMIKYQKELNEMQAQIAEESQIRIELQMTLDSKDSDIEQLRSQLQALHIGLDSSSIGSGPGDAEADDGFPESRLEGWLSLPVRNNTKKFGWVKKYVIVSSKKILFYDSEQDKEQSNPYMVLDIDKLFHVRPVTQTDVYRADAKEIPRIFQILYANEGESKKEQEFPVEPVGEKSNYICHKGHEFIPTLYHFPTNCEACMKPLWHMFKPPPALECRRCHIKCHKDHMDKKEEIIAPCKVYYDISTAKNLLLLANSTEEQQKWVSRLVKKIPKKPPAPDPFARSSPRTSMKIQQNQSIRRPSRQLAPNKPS
Assay comment: ROCK inhibition, Method 2 fluorescence polarization (FP) assay, ROCK IMAP Kit
Condition context: 10 μM ATP, read-out: IC50 Meth. 2

Compound: CC(N)c1ccc(C(=O)Nc2ccncc2)cc1-c1cccc(C(=O)OC2CCCCC2)c1 (stereo not drawn) [Compound 34]
Target entity: ROCKα/ROCKII (Homo sapiens, UniProt O75116)
IC50: < 100 nM
--
Compound: CC(N)c1ccc(C(=O)Nc2ccncc2F)cc1-c1cccc(C(=O)OCCO)c1 (stereo not drawn) [Compound 67]
Target entity: ROCKα/ROCKII (Homo sapiens, UniProt O75116)
IC50: < 100 nM
--
Compound: CCCCCCCCCCCCCCCCOC(=O)c1cccc(-c2cc(C(=O)Nc3ccncc3)ccc2C(C)N)c1 (stereo not drawn) [Compound 24]
Target entity: ROCKα/ROCKII (Homo sapiens, UniProt O75116)
IC50: 1000 to 10000 nM
--
Compound: CCCCCCCCCCCOC(=O)c1cccc(-c2cc(C(=O)Nc3ccncc3)ccc2C(C)N)c1 (stereo not drawn) [Compound 21]
Target entity: ROCKα/ROCKII (Homo sapiens, UniProt O75116)
IC50: 1000 to 10000 nM
--
Compound: CCCOC(=O)c1cc2c(-c3cc(C(=O)Nc4ccncc4)ccc3C(C)N)cccc2[nH]1 (stereo not drawn) [Compound 172]
Target entity: ROCKα/ROCKII (Homo sapiens, UniProt O75116)
IC50: 100 to 1000 nM
--
Compound: CC(N)c1ccc(C(=O)Nc2ccncc2)cc1-c1cccc(OCCSC2CCOC2=O)c1 (stereo not drawn) [Compound 130]
Target entity: ROCKα/ROCKII (Homo sapiens, UniProt O75116)
IC50: < 100 nM

====

ROCK II (Homo sapiens, UniProt O75116) data, read-out pIC50
Sequence (O75116 whole entry): as above
pIC50: −log10 of the molar value.

Molecule: CC(N)c1ccc(C(=O)Nc2ccncc2)cc1-c1cccc(C(=O)OCCO)c1 (stereo not shown)
Target entity: ROCK II (Homo sapiens, UniProt O75116)
pIC50: > 7.00
--
Molecule: CC(N)c1ccc(C(=O)Nc2ccncc2F)cc1-c1cccc(C(=O)OCC2CCCO2)c1 (stereo not shown)
Target entity: ROCK II (Homo sapiens, UniProt O75116)
pIC50: 6.00 to 7.00
--
Molecule: CC(N)c1ccc(C(=O)Nc2ccncc2)cc1-c1cccc(C(=O)OCC2CCCCO2)c1 (stereo not shown)
Target entity: ROCK II (Homo sapiens, UniProt O75116)
pIC50: > 7.00
--
Molecule: NCc1ccc(C(=O)Nc2ccncc2)cc1-c1cccc(C(=O)OC2CCCCC2)c1
Target entity: ROCK II (Homo sapiens, UniProt O75116)
pIC50: 6.00 to 7.00

====

Target entity: ROCKα/ROCKII (Homo sapiens)
Assay comment: ROCK inhibition, Method 2 fluorescence polarization (FP) assay, ROCK IMAP Kit
Condition context: 10 μM ATP, read-out: IC50 Meth. 2
Measured IC50 values are reported for all entries that follow.
Assay endpoint: IC50

Compound: COc1ccc(OC(=O)c2cccc(-c3cc(C(=O)Nc4ccncc4)ccc3C(C)N)c2)c(OC)c1OC (stereo not shown) [Compound 81]
Value reported: < 0.1 µM
--
Compound: CC(N)c1ccc(C(=O)Nc2ccncc2)cc1-c1cccc2[nH]c(C(=O)Oc3ccccc3)cc12 (stereo not shown) [Compound 173]
Value reported: 0.1 to 1 µM
--
Compound: CC(N)c1ccc(C(=O)Nc2ccncc2)cc1-c1cccc(C(=O)OCCO)c1 (stereo not shown) [Compound 65]
Value reported: < 0.1 µM
--
Compound: CC(N)c1ccc(C(=O)Nc2ccncc2)cc1-c1cccc(C(=O)OCCF)c1 (stereo not shown) [Compound 60]
Value reported: < 0.1 µM
--
Compound: CC(C)COC(=O)c1cccc(-c2cc(C(=O)Nc3ccncc3F)ccc2C(C)N)c1 (stereo not shown) [Compound 28]
Value reported: 0.1 to 1 µM
--
Compound: CCOC(=O)c1cccc(-c2cc(C(=O)Nc3ccncc3)ccc2C(C)N)c1 (stereo not shown) [Compound 8]
Value reported: < 0.1 µM
--
Compound: CCOC(=O)c1cccc(-c2cc(C(=O)Nc3ccncc3F)ccc2C(C)N)c1 (stereo not shown) [Compound 9]
Value reported: < 0.1 µM
